Source: patent US11986532B2

# target-under-test: BCL6 (Homo sapiens)
# Construct: endogenous in cells; host or cells: T47D breast cancer epithelial cells
# protocol-description: Immunofluorescence protocol for high content imaging of BCL6 (degradation) in T47D cells, 3 days compound treatment
# Type: cell-based
# condition-parameters: T47D, read-out: Mean Dmax (%)** category
# Procedure: Immunofluorescence Protocol for High Content Imaging of BCL6 T47D cells were seeded in 100 μl volume of RPMI1640-10% FBS in a 96-well black/clear bottom plates for adherent lines (Corning #3904). Day 1. T47D breast cancer epithelial cells were seeded at a density so that confluence is ˜70-90% at endpoint. Cells were seeded at 7K/0.1 ml/well the morning prior to the addition of exemplary bifunctional degradation compounds. Day 2. […] Plates were equilibrated to room temperature prior to reading. […]

compound | target-under-test | Dmax
CNC(=O)COc1cc2cc(Nc3nc(N4CCC(O[C@H]5C[C@H](N6CCC(c7ccc8c(c7)CN(C7CCC(=O)NC7=O)C8=O)C(F)(F)C6)C5)CC4)ncc3Cl)ccc2n(C(C)C)c1=O (some centres unmarked) [Compound 218] | BCL6 (Homo sapiens) | ≥ 70%
CNC(=O)COc1cc2cc(Nc3nc(N4CCC(CN5CCC6(CC5)CN(c5ccc7c(c5C)C(=O)N(C5CCC(=O)NC5=O)C7=O)C6)CC4)ncc3Cl)ccc2n(C(C)C)c1=O (centres unmarked) [Compound 358] | BCL6 (Homo sapiens) | 50 to 70%
CNC(=O)COc1cc2cc(Nc3nc(N4CCC(O[C@H]5C[C@H](N6CCN(c7cc8c(cc7F)C(=O)N(C7CCC(=O)NC7=O)C8=O)[C@H](C)C6)C5)CC4)ncc3Cl)ccc2n(C(C)C)c1=O (some centres unmarked) [Compound 408] | BCL6 (Homo sapiens) | 50 to 70%
CNC(=O)COc1cc2cc(Nc3cc(N4CCC(CN5CCC6(CC5)CN(c5ccc7c(c5)C(=O)N(C5CCC(=O)NC5=O)C7=O)C6)CC4)ncc3Cl)ccc2n(C(C)C)c1=O (centres unmarked) [Compound 215] | BCL6 (Homo sapiens) | 50 to 70%
CNC(=O)COc1cc2cc(Nc3nc(N4CCC(CN5CCC6(CN(c7ccc8c(c7F)CN(C7CCC(=O)NC7=O)C8=O)C6)C(F)(F)C5)CC4)ncc3Cl)ccc2n(C(C)C)c1=O (centres unmarked) [Compound 332] | BCL6 (Homo sapiens) | ≥ 70%

====

Quick reference: Dmax of the listed items.
# target-under-test: BCL6 (Homo sapiens, UniProt P41182)
# Construct: endogenous in cells; host or cells: T47D breast cancer epithelial cells
# protocol-description: Immunofluorescence protocol for high content imaging of BCL6 (degradation) in T47D cells, 3 days compound treatment
# Format: cell-based
# condition-parameters: T47D cells, 3 days compound treatment, read-out: Mean Dmax (%)** category
assay-endpoint: Dmax

molecule | recorded-measurement
CNC(=O)COc1cc2c(F)c(Nc3nc(N4CCC(CN5CCC6(CN(c7ccc8c(c7)CN(C7CCC(=O)NC7=O)C8=O)C6)C(F)(F)C5)CC4)ncc3Cl)ccc2n(C(C)C)c1=O (centres unmarked) [Compound 171] | ≥ 70%
CNC(=O)COc1cc2cc(Nc3nc(N4CCN(CC5CCN(c6cc7c(cc6OC)C(=O)N(C6CCC(=O)NC6=O)C7)CC5)CC4)ncc3Cl)ccc2n(C(C)C)c1=O (centres unmarked) [Compound 21] | < 50%
CNC(=O)COc1cc2cc(Nc3nc(N4CCN(C[C@H]5C[C@@H](N6CCC(c7ccc8c(c7)C(=O)N(C7CCC(=O)NC7=O)C8=O)CC6)C5)CC4)ncc3Cl)ccc2n(C(C)C)c1=O (some centres unmarked) [Compound 40] | 50 to 70%
CNC(=O)COc1cc2c(F)c(Nc3nc(N4CCC(O[C@H]5C[C@H](N6CCN(c7ccc8c(c7C)C(=O)N(C7CCC(=O)NC7=O)C8=O)[C@H](C)C6)C5)CC4)ncc3Cl)ccc2n(C(C)C)c1=O (some centres unmarked) [Compound 199] | ≥ 70%
CNC(=O)COc1cc2cc(Nc3nc(N4CCC(OC5CCC6(CC5)CN(c5cccc7c5CN(C5CCC(=O)NC5=O)C7=O)C6)CC4)ncc3Cl)ccc2n(C(C)C)c1=O (centres unmarked) [Compound 61] | 50 to 70%

====

# target-under-test: BCL6 (Homo sapiens, UniProt P41182)
# Construct: endogenous in cells; host or cells: T47D breast cancer epithelial cells
# protocol-description: Immunofluorescence protocol for high content imaging of BCL6 (degradation) in T47D cells, 3 days compound treatment
# Type: cell-based
# condition-parameters: T47D, read-out: Mean Dmax (%)** category
assay-endpoint: Dmax

molecule | assay-endpoint | recorded-measurement
CNC(=O)COc1cc2cc(Nc3nc(N4CCC(OC5CCC6(CC5)CN(c5cc(F)cc7c5CN(C5CCC(=O)NC5=O)C7=O)C6)CC4)ncc3Cl)ccc2n(C(C)C)c1=O (stereo not shown) [Compound 299] | Dmax | 50 to 70%
CNC(=O)COc1cc2cc(Nc3nc(N4CCN(CC5CC6(CCN(c7ccc8c(c7F)CN(C7CCC(=O)NC7=O)C8=O)CC6)C5)CC4)ncc3Cl)ccc2n(C(C)C)c1=O (stereo not shown) [Compound 319] | Dmax | 50 to 70%
CNC(=O)COc1cc2cc(Nc3nc(N4CCC(O[C@H]5C[C@H](N6CCN(c7ccc8c(c7F)CN([C@@H]7CCC(=O)NC7=O)C8=O)CC6)C5)CC4)ncc3Cl)ccc2n(C(C)C)c1=O [Compound 392] | Dmax | ≥ 70%
CNC(=O)COc1cc2cc(Nc3nc(N4CCC(O[C@H]5C[C@H](N6CCN(c7ccc8c(c7F)CN([C@@H]7CCC(=O)NC7=O)C8=O)[C@H](C)C6)C5)CC4)ncc3Cl)ccc2n(C(C)C)c1=O [Compound 395] | Dmax | ≥ 70%
CNC(=O)COc1cc2cc(Nc3cc(N4CCC(F)(CN5CCC6(CC5)CN(c5ccc7c(c5)CN(C5CCC(=O)NC5=O)C7=O)C6(C)C)CC4)ncc3Cl)ccc2n(C(C)C)c1=O (stereo not shown) [Compound 240] | Dmax | ≥ 70%
CNC(=O)COc1cc2cc(Nc3nc(N4CCC(O[C@H]5C[C@H](N6CCN(c7cc8c(cc7OC)C(=O)N(C7CCC(=O)NC7=O)C8=O)CC6)C5)CC4)ncc3Cl)ccc2n(C(C)C)c1=O (stereo partly shown) [Compound 423] | Dmax | ≥ 70%
CNC(=O)COc1cc2cc(Nc3nc(N4CCC(F)(CN5CC(N6CCC(c7ccc8c(c7F)CN(C7CCC(=O)NC7=O)C8=O)CC6)C5)CC4)ncc3Cl)ccc2n(C(C)C)c1=O (stereo not shown) [Compound 285] | Dmax | ≥ 70%
CNC(=O)COc1cc2cc(Nc3nc(N4CCC(O[C@H]5C[C@H](N6CCN(c7c(F)cc8c(c7F)CN(C7CCC(=O)NC7=O)C8=O)CC6)C5)CC4)ncc3Cl)ccc2n(C(C)C)c1=O (stereo partly shown) [Compound 386] | Dmax | 50 to 70%
CNC(=O)COc1cc2cc(Nc3nc(N4CCC(O[C@H]5C[C@H](N6C7CCC6CN(c6ccc8c(c6F)CN(C6CCC(=O)NC6=O)C8=O)C7)C5)CC4)ncc3Cl)ccc2n(C(C)C)c1=O (stereo partly shown) [Compound 406] | Dmax | 50 to 70%
CNC(=O)COc1cc2cc(Nc3nc(N4CCC(O[C@H]5C[C@H](N6CC7(CCN(c8ccc9c(c8)C(=O)N(C8CCC(=O)NC8=O)C9=O)CC7)C6)C5)CC4)ncc3Cl)ccc2n(C(C)C)c1=O (stereo partly shown) [Compound 365] | Dmax | 50 to 70%

====

# target-under-test: BCL6 (Homo sapiens, UniProt P41182)
# Construct: endogenous in cells; host or cells: T47D breast cancer epithelial cells
# protocol-description: Immunofluorescence protocol for high content imaging of BCL6 (degradation) in T47D cells, 3 days compound treatment
# Type: cell-based
# condition-parameters: T47D cells, 3 days compound treatment, read-out: Mean Dmax (%)** category
Quick reference: Dmax of the listed items.

compound | Dmax
CNC(=O)COc1cc2c(F)c(Nc3nc(N4CCC(O[C@H]5C[C@H](N6CCC(c7ccc8c(c7)C(=O)N(C7CCC(=O)NC7=O)C8=O)CC6)C5)CC4)ncc3Cl)ccc2n(C(C)C)c1=O (some centres unmarked) | ≥ 70%
CNC(=O)COc1cc2cc(Nc3nc(N4CCN(CC5CCC6(CCN(c7ccc8c(c7)CN(C7CCC(=O)NC7=O)C8=O)C6)C5)CC4)ncc3Cl)ccc2n(C(C)C)c1=O (centres unmarked) | 50 to 70%
CNC(=O)COc1cc2cc(Nc3nc(N4CCC(O[C@H]5C[C@H](N6CCN(c7ccc8c(n7)CN(C7CCC(=O)NC7=O)C8=O)[C@H](C)C6)C5)CC4)ncc3Cl)ccc2n(C(C)C)c1=O (some centres unmarked) | ≥ 70%
CNC(=O)COc1cc2cc(Nc3nc(N4CCC(F)(CN5CCC6(CC5)CN(c5cccc7c5C(=O)N(C5CCC(=O)NC5=O)C7=O)C6)CC4)ncc3Cl)ccc2n(C(C)C)c1=O (centres unmarked) | ≥ 70%
CNC(=O)COc1cc2cc(Nc3nc(N4CCN(C(C)(C)C5CCN(c6cc7c(cc6OC)C(=O)N(C6CCC(=O)NC6=O)C7)CC5)CC4)ncc3Cl)ccc2n(C(C)C)c1=O (centres unmarked) | 50 to 70%
